# target-entity: Caspase-7 (Homo sapiens)
# Sequence (P55210 24-198 limits assumed): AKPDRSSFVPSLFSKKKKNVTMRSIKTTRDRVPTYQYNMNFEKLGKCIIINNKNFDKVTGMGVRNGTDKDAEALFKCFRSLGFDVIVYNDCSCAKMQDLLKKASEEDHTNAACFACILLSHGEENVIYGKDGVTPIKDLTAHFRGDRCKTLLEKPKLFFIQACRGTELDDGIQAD
# Sequence (P55210 207-303 limits assumed): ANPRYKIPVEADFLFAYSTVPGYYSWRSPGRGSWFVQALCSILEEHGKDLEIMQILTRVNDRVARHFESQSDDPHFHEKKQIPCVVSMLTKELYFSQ
# protocol-text: Inhibition of human recombinant caspase-7 using Ac-DEVD-AMC as substrate after 10 mins by fluorescence assay
Recorded IC50 for the following compounds
Reply with just the number (in µM).

Answered examples (2):
# structure, target-entity, readout-units, val
rows = [
    ("O=c1[nH]sc2ccccc12", "Caspase-7 (Homo sapiens)", "µM", 137),
    ("O=C(Nc1ccc(N2CCOCC2)cc1)n1sc2ccccc2c1=O", "Caspase-7 (Homo sapiens)", "µM", 0.909),
]

Would you kindly share the measured IC50 for "O=C(NCc1ccc(N2CCOCC2)cc1)n1sc2ccccc2c1=O" ? 248

Would you kindly share the measured IC50 for "O=C(Cn1sc2ccccc2c1=O)Nc1ccc(N2CCOCC2)cc1" ? 100

* * *

# target-entity: Caspase-3 (Homo sapiens, UniProt P42574)
# Sequence (P42574 29-175 limits assumed): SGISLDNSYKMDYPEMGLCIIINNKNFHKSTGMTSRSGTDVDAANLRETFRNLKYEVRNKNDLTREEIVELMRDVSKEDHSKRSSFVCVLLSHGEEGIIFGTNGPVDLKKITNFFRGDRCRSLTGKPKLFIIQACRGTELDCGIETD
# Sequence (P42574 176-277 limits assumed): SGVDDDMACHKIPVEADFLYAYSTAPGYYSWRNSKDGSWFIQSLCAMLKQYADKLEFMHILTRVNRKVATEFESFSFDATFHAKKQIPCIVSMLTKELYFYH
# protocol-text: Inhibition of human recombinant caspase-3 using […] as substrate after 10 mins by fluorescence assay
observation-type: pIC50
Schema: pIC50 number; meaning minus log10 of the concentration expressed in molar units.

Would you kindly share the measured pIC50 for "O=C(Nc1ccc(N2CCOCC2)cc1)n1sc2ccccc2c1=O" ? 8.94
